B1: library; numbered along this chain (parent)
chain: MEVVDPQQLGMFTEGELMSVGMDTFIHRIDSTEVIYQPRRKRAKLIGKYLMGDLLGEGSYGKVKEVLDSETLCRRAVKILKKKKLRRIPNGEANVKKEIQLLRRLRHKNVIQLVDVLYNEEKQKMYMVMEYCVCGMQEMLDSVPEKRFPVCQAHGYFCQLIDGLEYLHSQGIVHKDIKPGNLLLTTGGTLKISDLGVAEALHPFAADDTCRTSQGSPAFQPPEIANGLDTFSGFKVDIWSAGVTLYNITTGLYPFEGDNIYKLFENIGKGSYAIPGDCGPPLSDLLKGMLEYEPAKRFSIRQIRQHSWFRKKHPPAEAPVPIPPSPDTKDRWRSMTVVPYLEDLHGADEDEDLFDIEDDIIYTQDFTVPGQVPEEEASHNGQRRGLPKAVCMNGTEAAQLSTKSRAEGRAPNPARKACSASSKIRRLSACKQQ

Variants of: B1
MEASUREMENT_PROTOCOL: STK11 functional score (HeLa growth suppression), rescaled enrichment; synonymous median = 1, nonsense median = 0 (normalised score)
CONDITION_LABEL: with HeLa; variant type: missense
// reported STK11 functional score per item
Quick one: just the number, no unit, thanks!

Give its STK11 functional score value. Item: "E145R"
1.21

Value lookup for STK11 functional score; key = "G58V"
-0.308

Query (variant): "H174S" ; field requested: STK11 functional score
0.695

Please look up its STK11 functional score: "P326R"
1.53

Would you mind telling me what STK11 functional score value was observed for "G187L" ?
1.27

Recorded STK11 functional score of "L183G" , please.
0.551

Record request: STK11 functional score value, item "T71V"
1.04

What value of STK11 functional score has been reported for the following variant? "H202G"
1.3

More entries:
Which STK11 functional score reading was recorded for the variant "L245K" ?
0.475

Which STK11 functional score value belongs to "L55S" ?
0.693

Query (variant): "T395V" ; field requested: STK11 functional score
1.04

# get_value(readout='STK11 functional score', item= "P323M" )
1.55

Consider the variant shown here: "S69H" What is its recorded STK11 functional score?
0.304

Entry "A389S" has what STK11 functional score?
1.38

# lookup: STK11 functional score of "D343W"
1.55

Record request: STK11 functional score value, item "H345T"
1.57

# input variant: "Y261I" ; wanted: its STK11 functional score
1.62

Any idea what its STK11 functional score is? The variant is "V368F"
0.859

# query: STK11 functional score of entry "T32S"
1.45

Need STK11 functional score of "H168A" , thanks.
1.25

Could you share which STK11 functional score value was measured for "A205R" ?
1.23

Return reported STK11 functional score; argument: "P280G"
1.46

Returns the measured STK11 functional score for the input variant. Input: "R147P"
0.188

Origin of measurements: the supplement of paper PMC12338614
